# measured on: ZFP SBS#517 (synthetic, UniProt P08047)
# Sequence (P08047 other isoform, or with tags, fused parts or gaps): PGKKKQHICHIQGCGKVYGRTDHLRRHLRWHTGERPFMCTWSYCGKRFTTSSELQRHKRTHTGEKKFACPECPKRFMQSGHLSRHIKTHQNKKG
# experiment notes: EMSA
# experimental conditions: tags: MBP fusion
pKd: −log10 of the molar value.
measure name: pKd

GGAGCTGGGG (dsDNA) DNA 1: GGAGCTGGGG DNA 2: CCCCAGCTCC = 7.30
